# method.notes: PK study of male SD rats after single intragastric administration (5% solutol)
# Format: in vivo
# test.parameters: male, SD, rat, plasma, po, 100 mg/kg, single PO compound 1-6 100 mg/kg, analyte compound 1-6, animal 5
readout.kind: MRT last (h)
The response must be a number in h with no trailing unit.

Challenge: For O=C(c1ccc(F)cc1C(F)(F)F)c1cnc2n1CCN(c1cn[nH]c(=O)c1Cl)C2 [Compound 1-6] , what is its reported MRT last?
Response given: 6.38

---

The molecules listed here are annotated with their bioavailability.
# method.notes: Pharmacokinetic study in mice in vivo (gavage and tail vein injection)
# test.parameters: mouse, plasma, po, 1 mg/kg, p.o. vs i.v.
# Source text: […] Mouse plasma was collected at a specific time point after administration, and the concentration of the compound in plasma was detected by LC-MS/MS (AB SCIEX Qtrap4500). PK parameters of each compound (WinNonlin V5.2, Pharsight) were statistically analyzed and calculated to reflect the pharmacokinetic properties of the compounds of the present disclosure in mice in vivo.
Numeric answer only, unit % assumed.

N#Cc1ccc(Cc2cnc3n2CCN(c2cn[nH]c(=O)c2Cl)C3)c(C(F)(F)F)c1	161

Challenge: bioavailability lookup needed for `O=c1[nH]ncc(N2CCn3c(Cc4ccc(F)cc4C(F)(F)F)cnc3C2)c1Cl` , thanks.
Response given: 43.2

Challenge: Can you share its bioavailability? I mean this molecule: `O=c1[nH]ncc(N2CCn3c(Cc4ccccc4C(F)(F)F)cnc3C2)c1Cl`
Response given: 80.6

Challenge: Name the recorded bioavailability for `O=C(c1ccc(F)cc1C(F)(F)F)c1cnc2n1CCN(c1cn[nH]c(=O)c1Cl)C2` .
Response given: 66.8

---

Known IC50 of a selection of compounds
# tested.target: TRPC5 channel (Homo sapiens (Human), UniProt Q9UL62)
# Sequence (Q9UL62 whole entry): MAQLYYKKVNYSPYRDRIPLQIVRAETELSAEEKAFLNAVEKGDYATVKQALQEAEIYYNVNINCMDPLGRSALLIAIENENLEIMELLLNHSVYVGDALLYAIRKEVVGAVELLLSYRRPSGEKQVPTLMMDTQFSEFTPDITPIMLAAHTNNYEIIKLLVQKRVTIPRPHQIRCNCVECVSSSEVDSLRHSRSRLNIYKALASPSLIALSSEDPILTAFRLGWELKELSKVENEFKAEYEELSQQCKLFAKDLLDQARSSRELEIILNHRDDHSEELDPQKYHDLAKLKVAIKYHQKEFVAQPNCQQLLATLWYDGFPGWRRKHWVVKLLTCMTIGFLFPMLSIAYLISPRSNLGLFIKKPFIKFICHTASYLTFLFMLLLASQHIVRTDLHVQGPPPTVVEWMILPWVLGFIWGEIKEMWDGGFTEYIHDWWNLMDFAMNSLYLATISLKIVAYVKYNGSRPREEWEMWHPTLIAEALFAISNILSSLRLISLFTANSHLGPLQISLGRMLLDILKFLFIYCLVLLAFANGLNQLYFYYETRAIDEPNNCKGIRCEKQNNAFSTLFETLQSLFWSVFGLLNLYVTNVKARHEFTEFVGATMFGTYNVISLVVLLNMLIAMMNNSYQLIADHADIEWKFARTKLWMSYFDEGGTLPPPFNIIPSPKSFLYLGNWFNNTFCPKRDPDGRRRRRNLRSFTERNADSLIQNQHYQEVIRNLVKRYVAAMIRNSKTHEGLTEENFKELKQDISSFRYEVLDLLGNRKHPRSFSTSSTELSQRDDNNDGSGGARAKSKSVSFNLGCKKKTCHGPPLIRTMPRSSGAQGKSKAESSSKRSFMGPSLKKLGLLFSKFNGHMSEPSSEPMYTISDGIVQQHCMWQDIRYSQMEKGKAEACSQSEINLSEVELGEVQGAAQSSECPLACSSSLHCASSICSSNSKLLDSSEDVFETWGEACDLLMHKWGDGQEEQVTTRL
# method.notes: TRPC5 calcium flux assay (Fluo-4, FLIPR) in TRPC5-HEK 293 cells
# Assay type: cell-based
# test.parameters: 0.3 nM Englerin A, Table 11, read-out: TRPC5 inhibitory activity, IC50
Your answer is read as nM, so omit the unit and give the number.

As a guide, the following entries are already answered.
O=C(c1ccc(F)cc1C(F)(F)F)c1cnc2n1CCN(c1cn[nH]c(=O)c1Cl)C2	11.5
O=c1[nH]ncc(N2CCn3c(Cc4ccccc4C(F)(F)F)cnc3C2)c1Cl	10.8
O=c1[nH]ncc(N2CCn3c(Cc4ccc(F)cc4C(F)F)cnc3C2)c1Cl	7.37
N#Cc1ccc(C(=O)c2cnc3n2CCN(c2cn[nH]c(=O)c2Cl)C3)c(C(F)(F)F)c1	24
O=c1[nH]ncc(N2CCn3c(Cc4ccc(F)cc4Cl)cnc3C2)c1Cl	39.4

Challenge: Hello, I am looking for reported IC50 with TRPC5 channel (Homo sapiens (Human), UniProt Q9UL62) for `N#Cc1ccc(Cc2cnc3n2CCN(c2cn[nH]c(=O)c2Cl)C3)c(C(F)(F)F)c1` . Could you help?
Response given: 18.2

Challenge: Param readout = IC50; param system = TRPC5 channel (Homo sapiens (Human), UniProt Q9UL62); param query = `O=c1[nH]ncc(N2CCn3c(Cc4cc(F)ccc4C(F)(F)F)cnc3C2)c1Cl` ; response: value
Response given: 14.6

Challenge: TRPC5 channel (Homo sapiens (Human), UniProt Q9UL62) / IC50 / `O=c1[nH]ncc(N2CCn3c(Cc4ccc(F)cc4C(F)(F)F)cnc3C2)c1Cl` : value?
Response given: 6.52

---

# method.notes: Tissue distribution in CD-1 mice after single intragastric administration
# Type: in vivo
# test.parameters: mouse, liver, oral; male CD-1 mice, 10 mg/kg intragastric, 1 hour; read-out: liver, times of the plasma concentration
readout.kind: Kp at 1 h
Reply: number alone, nothing else.

Challenge: Looking for the measured Kp at 1 h of `O=C(c1ccc(F)cc1C(F)(F)F)c1cnc2n1CCN(c1cn[nH]c(=O)c1Cl)C2` , can you help?
Response given: 4.53

---

# method.notes: PK study of male SD rats after single intragastric administration (5% solutol)
# Format: in vivo
# test.parameters: male, SD, rat, plasma, po, 100 mg/kg, single PO compound 1-6 100 mg/kg, analyte compound 1-6, mean value
readout.kind: Cmax (ng/mL)
// note: answer is a bare numeric in ng/mL

Challenge: I'd like to know its Cmax. The compound in question is `O=C(c1ccc(F)cc1C(F)(F)F)c1cnc2n1CCN(c1cn[nH]c(=O)c1Cl)C2`
Response given: 1220

---

# method.notes: Tissue distribution in CD-1 mice after single intragastric administration
# Type: in vivo
# test.parameters: mouse, liver, oral; male CD-1 mice, 10 mg/kg intragastric, 0.167 hours; read-out: liver, times of the plasma concentration
readout.kind: Kp at 0.167 h

Challenge: Name the recorded Kp at 0.167 h for `O=C(c1ccc(F)cc1C(F)(F)F)c1cnc2n1CCN(c1cn[nH]c(=O)c1Cl)C2` .
Response given: 5.55

---

# method.notes: PK study of male SD rats after single intragastric administration (5% solutol)
# Format: in vivo
# test.parameters: male, SD, rat, plasma, po, 100 mg/kg, single PO compound 1-6 100 mg/kg, analyte compound 1-6, mean value
readout.kind: half-life (h)
I only need the number, in h, no unit after it.

Challenge: // query half-life value for entry O=C(c1ccc(F)cc1C(F)(F)F)c1cnc2n1CCN(c1cn[nH]c(=O)c1Cl)C2 [Compound 1-6]
Response given: 5.02

---

# half-life annotations
# method.notes: Liver microsome half-life assay, monkey
# Assay type: in vitro ADME
# test.parameters: liver microsomes, 1 mg/mL liver microsomal protein, 37° C., read-out: Liver microsome T½ (min) Monkey
# value in min; strip the unit string

Consider the worked cases shown below.
O=c1[nH]ncc(N2CCc3c(ncn3Cc3ccc(F)cc3C(F)(F)F)C2)c1Cl [Compound C002, reference compound]	15
O=C(c1ccc(F)cc1C(F)(F)F)c1cnc2n1CCN(c1cn[nH]c(=O)c1Cl)C2	247

As a next step, examine the compound that follows.
Challenge: # get_value(readout='half-life', item= O=c1[nH]ncc(N2CCc3c(ncn3Cc3ccccc3C(F)(F)F)C2)c1Cl [Compound C001, reference compound] )
Response given: 38

---

# method.notes: PK study of male SD rats after single intragastric administration (5% solutol)
# Type: in vivo
# test.parameters: male, SD, rat, plasma, po, 100 mg/kg, single PO compound 1-6 100 mg/kg, analyte compound 1-6, animal 4
readout.kind: AUC(0-inf) (µg·h/mL)
The figure you give is taken to be in µg·h/mL; do not add the unit.

Challenge: Suppose we examine the compound O=C(c1ccc(F)cc1C(F)(F)F)c1cnc2n1CCN(c1cn[nH]c(=O)c1Cl)C2 [Compound 1-6] ; what AUC(0-inf) value has been reported?
Response given: 14.5

---

# method.notes: PK study of male SD rats after single intragastric administration (5% solutol)
# Assay type: in vivo
# test.parameters: male, SD, rat, plasma, po, 100 mg/kg, single PO compound 1-6 100 mg/kg, analyte compound 1-6, animal 6
# Procedure: Effect Example 2: PK Study of Male SD Rats after Single Intragastric Administration of Compound (Using 5% Solutol as a Solvent) […] After administration to rats, blood was collected from the orbital venous plexus according to the sampling time points. […] Hemolysis was observed and recorded, and the sample was sent to bioassay for testing. If the sample could not be analyzed the same day, the sample was stored at −80° C. until further testing (be careful not to perform multiple freezing/thawing processes). […]
readout.kind: Cmax
Don't forget the unit after the value.

Challenge: Recorded Cmax for `O=C(c1ccc(F)cc1C(F)(F)F)c1cnc2n1CCN(c1cn[nH]c(=O)c1Cl)C2` , please?
Response given: 1150 ng/mL

---

# method.notes: Tissue distribution in CD-1 mice after single intragastric administration
# Type: in vivo
# test.parameters: mouse, kidney, oral; male CD-1 mice, 10 mg/kg intragastric, 1 hour; read-out: kidney, times of the plasma concentration
readout.kind: Kp at 1 h
No unit in the answer, please; the number alone is enough.

Challenge: // Kp at 1 h lookup, key: `O=C(c1ccc(F)cc1C(F)(F)F)c1cnc2n1CCN(c1cn[nH]c(=O)c1Cl)C2`
Response given: 2.51

---

Measured Cmax, listed per entry.
# method.notes: Pharmacokinetic study in mice in vivo (gavage and tail vein injection)
# test.parameters: mouse, plasma, po, dose 1 mg/kg
Report only the number, with the unit ng/mL understood.

Below, each entry is followed by its recorded Cmax result.
O=c1[nH]ncc(N2CCn3c(Cc4ccc(F)cc4C(F)(F)F)cnc3C2)c1Cl	248
O=c1[nH]ncc(N2CCn3c(Cc4ccccc4C(F)(F)F)cnc3C2)c1Cl	84.3
O=C(c1ccc(F)cc1C(F)(F)F)c1cnc2n1CCN(c1cn[nH]c(=O)c1Cl)C2	422

Next molecule, please.
Challenge: // query Cmax value for entry `N#Cc1ccc(Cc2cnc3n2CCN(c2cn[nH]c(=O)c2Cl)C3)c(C(F)(F)F)c1`
Response given: 301
